# SYSTEM_TESTED: RNase A (Bos taurus, UniProt P61823)
# Sequence (P61823 27-150): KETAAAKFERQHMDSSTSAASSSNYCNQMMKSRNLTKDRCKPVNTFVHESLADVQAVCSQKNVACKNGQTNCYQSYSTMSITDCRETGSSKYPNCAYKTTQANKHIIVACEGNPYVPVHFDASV
# ASSAY_COMMENT: Inhibition kinetics of RNase A using a fluorogenic substrate
# Format: biochemical, bovine
# EXPERIMENTAL_CONDITIONS: ± standard error of fitting one-site binding equation; this work
Note to self: Ki under 1 µM means 1 (yes), ties and anything higher get 0 (no).

| COMPOUND | ASSIGNED_CATEGORY |
| --- | --- |
| O=P1(O)OP(=O)(O)OP(=O)(O)OP(=O)(O)OP(=O)(O)OP(=O)(O)O1 [cP6i, hexametaphosphate] | 0 (no) |
| Nc1ncnc2c1ncn2[C@@H]1O[C@H](COP(=O)(O)O)[C@@H](O)[C@H]1O | 0 (no) |
| O=c1ccn([C@@H]2O[C@H](COP(=O)(O)OP(=O)(O)OP(=O)(O)OP(=O)(O)O)[C@@H](O)[C@H]2O)c(=O)[nH]1 [p4U, uridine tetraphosphate] | 0 (no) |
| Nc1ncnc2c1ncn2[C@@H]1O[C@H](COP(=O)(O)OP(=O)(O)OP(=O)(O)OP(=O)(O)OP(=O)(O)O)[C@@H](O)[C@H]1O | 0 (no) |
| O=c1ccn([C@@H]2O[C@H](COP(=O)(O)OP(=O)(O)OP(=O)(O)O)[C@@H](O)[C@H]2O)c(=O)[nH]1 | 0 (no) |
| Nc1ncnc2c1ncn2C1OC(COP(=O)(O)OP2(=O)OP(=O)(O)OP(=O)(O)OP(=O)(O)O2)C(O)C1O (stereo not drawn) | 1 (yes) |
| O=P(O)(O)OP(=O)(O)OP(=O)(O)O | 0 (no) |
| O=P1(O)OP(=O)(O)OP(=O)(O)OP(=O)(O)O1 [cP4i, tetrametaphosphate] | 0 (no) |
| O=c1ccn([C@@H]2O[C@H](COP(=O)(O)OP(=O)(O)OP(=O)(O)OP(=O)(O)OP(=O)(O)O)[C@@H](O)[C@H]2O)c(=O)[nH]1 | 1 (yes) |
| O=P1(O)OP(=O)(O)OP(=O)(O)O1 [cP3i, trimetaphosphate] | 0 (no) |
| Nc1ncnc2c1ncn2[C@@H]1O[C@H](COP(=O)(O)OP(=O)(O)OP(=O)(O)OP(=O)(O)O)[C@@H](O)[C@H]1O [p4A, adenosine tetraphosphate] | 0 (no) |
